assay: Pharmacokinetics in CD1 mice, iv and po; assay type: in vivo; settings: mouse, plasma, po, 3 mg/kg
Measured AUC(0-t) of individual entries
Measurement type: AUC(0-t) (ng·h/mL)

>  <Compound>
CN1CCC(c2ccc(C(=O)Nc3n[nH]c4cc(Nc5ccccc5F)ccc34)cc2)CC1 [Compound 17]

>  <Measurement>
712

$$$$
>  <Compound>
CN1CCC(c2ccc(C(=O)Nc3n[nH]c4nc(Nc5ccccc5F)ccc34)cc2)CC1 [Compound 5]

>  <Measurement>
1170

$$$$

====

target: VEGFR2 (KDR) kinase (Homo sapiens, UniProt P35968); construct: purchased SignalChem; experiment: ADP-Glo in vitro kinase assay, VEGFR2 kinase inhibition; assay type: biochemical; conditions: ATP 50 μM, 30 minutes at room temperature
Sequence (P35968 20-1356): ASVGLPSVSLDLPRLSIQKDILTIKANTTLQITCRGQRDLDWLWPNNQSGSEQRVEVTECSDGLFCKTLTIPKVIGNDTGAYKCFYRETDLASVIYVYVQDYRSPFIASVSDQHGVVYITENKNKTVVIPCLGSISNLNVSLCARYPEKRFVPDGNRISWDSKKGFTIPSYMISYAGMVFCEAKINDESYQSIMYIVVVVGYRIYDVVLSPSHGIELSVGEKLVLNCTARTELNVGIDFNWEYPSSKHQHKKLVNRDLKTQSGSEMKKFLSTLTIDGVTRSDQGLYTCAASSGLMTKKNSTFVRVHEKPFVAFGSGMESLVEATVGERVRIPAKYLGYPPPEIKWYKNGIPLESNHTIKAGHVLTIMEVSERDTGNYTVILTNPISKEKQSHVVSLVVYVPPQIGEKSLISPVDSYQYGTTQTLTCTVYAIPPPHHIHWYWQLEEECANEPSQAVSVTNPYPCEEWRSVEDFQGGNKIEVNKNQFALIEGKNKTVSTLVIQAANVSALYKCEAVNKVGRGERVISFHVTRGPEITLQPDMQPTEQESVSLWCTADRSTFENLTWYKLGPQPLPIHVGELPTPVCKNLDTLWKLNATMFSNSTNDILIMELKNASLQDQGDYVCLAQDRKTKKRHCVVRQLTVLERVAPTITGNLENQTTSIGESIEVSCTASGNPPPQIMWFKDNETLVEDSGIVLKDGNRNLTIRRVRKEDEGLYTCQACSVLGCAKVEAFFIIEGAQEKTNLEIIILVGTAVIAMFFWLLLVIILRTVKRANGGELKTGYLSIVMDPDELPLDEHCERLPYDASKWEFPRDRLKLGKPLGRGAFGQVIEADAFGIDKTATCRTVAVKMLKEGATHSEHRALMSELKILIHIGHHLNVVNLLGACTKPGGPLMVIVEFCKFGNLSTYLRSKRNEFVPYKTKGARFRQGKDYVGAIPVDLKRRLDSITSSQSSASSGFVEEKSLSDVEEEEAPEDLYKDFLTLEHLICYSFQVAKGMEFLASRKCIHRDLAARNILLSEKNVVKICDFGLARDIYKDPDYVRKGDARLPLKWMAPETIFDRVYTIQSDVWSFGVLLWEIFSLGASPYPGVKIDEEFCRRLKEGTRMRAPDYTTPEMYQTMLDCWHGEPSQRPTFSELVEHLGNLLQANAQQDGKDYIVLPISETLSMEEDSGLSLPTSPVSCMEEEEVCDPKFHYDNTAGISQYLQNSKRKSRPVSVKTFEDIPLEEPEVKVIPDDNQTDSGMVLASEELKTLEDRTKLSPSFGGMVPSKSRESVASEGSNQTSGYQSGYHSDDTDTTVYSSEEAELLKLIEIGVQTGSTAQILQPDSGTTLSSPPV

>  <Chem smiles>
CN1CCC(c2ccc(C(=O)Nc3n[nH]c4nc(Nc5ccc(C#N)cc5)ccc34)cc2)CC1

>  <IC50 [nM]>
3

$$$$
>  <Chem smiles>
CN1CCC(c2ccc(C(=O)Nc3n[nH]c4nc(Nc5ccc6c(c5)OCO6)ccc34)cc2)CC1

>  <IC50 [nM]>
1

$$$$
>  <Chem smiles>
CN1CCC(c2ccc(C(=O)Nc3n[nH]c4cc(Nc5ccccc5Cl)ccc34)cc2)CC1

>  <IC50 [nM]>
58

$$$$
>  <Chem smiles>
CN1CCC(c2ccc(C(=O)Nc3n[nH]c4cc(Nc5ccccc5F)ccc34)nc2)CC1

>  <IC50 [nM]>
533

$$$$

====

assay: Pharmacokinetics in CD1 mice, iv and po; type: in vivo; conditions: mouse, brain and plasma, 3 mg/kg, calculated on AUC iv, read-out: B/P (brain to plasma ratio)

>  <Compound>
CN1CCC(c2ccc(C(=O)Nc3n[nH]c4nc(Nc5ccccc5F)ccc34)cc2)CC1 [Compound 5]

>  <Kp>
1.2

$$$$

====

target: FYN (Homo sapiens, UniProt P06241)
Sequence (P06241 whole entry): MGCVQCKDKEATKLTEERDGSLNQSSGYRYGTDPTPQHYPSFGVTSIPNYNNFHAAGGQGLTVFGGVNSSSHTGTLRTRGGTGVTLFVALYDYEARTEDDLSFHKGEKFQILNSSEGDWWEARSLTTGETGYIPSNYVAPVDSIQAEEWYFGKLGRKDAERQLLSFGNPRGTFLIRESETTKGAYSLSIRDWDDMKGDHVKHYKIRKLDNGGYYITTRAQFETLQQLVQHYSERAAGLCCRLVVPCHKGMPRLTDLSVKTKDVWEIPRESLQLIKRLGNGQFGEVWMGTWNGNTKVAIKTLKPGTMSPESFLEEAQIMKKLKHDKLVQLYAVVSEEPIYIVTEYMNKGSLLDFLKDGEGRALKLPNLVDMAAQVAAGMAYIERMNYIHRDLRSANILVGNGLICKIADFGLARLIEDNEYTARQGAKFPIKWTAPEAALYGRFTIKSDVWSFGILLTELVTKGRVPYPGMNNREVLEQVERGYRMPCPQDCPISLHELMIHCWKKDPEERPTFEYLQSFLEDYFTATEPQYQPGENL
So basically: is IC50 under 100 nM? Then 1.0. Not under? Then 0.0.

>  <Molecule>
CN1CCC(c2ccc(C(=O)Nc3n[nH]c4cc(Nc5ccccc5F)ccc34)c(NC3CCOCC3)c2)CC1 [Compound 53]

>  <Group label>
0.0

$$$$
>  <Molecule>
CN1CCC(c2ccc(C(=O)Nc3n[nH]c4cc(Nc5ccccc5F)ccc34)nc2)CC1 [Compound 39]

>  <Group label>
0.0

$$$$
>  <Molecule>
CN1CCC(c2ccc(C(=O)Nc3n[nH]c4cc(Nc5ccccc5F)ccc34)cc2)CC1 [Compound 17]

>  <Group label>
1.0

$$$$
>  <Molecule>
CN1CC[C@@H](c2ccc(C(=O)Nc3n[nH]c4cc(Nc5ccccc5F)ccc34)cc2)[C@@H](F)C1 (single isomer, unassigned) [Compound 3]

>  <Group label>
0.0

$$$$
>  <Molecule>
Cc1ccc(Nc2ccc3c(NC(=O)c4ccc(C5CCN(C)CC5)cc4)n[nH]c3n2)cc1 [Compound 23]

>  <Group label>
0.0

$$$$
>  <Molecule>
COc1ccccc1Nc1ccc2c(NC(=O)c3ccc(C4CCN(C)CC4)cc3)n[nH]c2n1 [Compound 27]

>  <Group label>
0.0

$$$$

====

# pIC50 per entry for FYN (Homo sapiens, UniProt P06241)
pIC50: −log10 of the molar value.
Measurement type: pIC50

>  <Molecule>
COc1ccc(Nc2ccc3c(NC(=O)c4ccc(C5CCN(C)CC5)cc4)n[nH]c3n2)cc1

>  <Measurement type>
pIC50

>  <Measurement>
6.23

$$$$
>  <Molecule>
CN1CCC(c2ccc(C(=O)Nc3n[nH]c4cc(Nc5ccc(Cl)cc5F)ccc34)cc2)CC1

>  <Measurement type>
pIC50

>  <Measurement>
6.66

$$$$
>  <Molecule>
Cc1cccc(Cl)c1Nc1ccc2c(NC(=O)c3ccc(C4CCN(C)CC4)cc3)n[nH]c2c1

>  <Measurement type>
pIC50

>  <Measurement>
6.68

$$$$
>  <Molecule>
CN1CCCC(Oc2ccc(C(=O)Nc3n[nH]c4cc(Nc5ccccc5F)ccc34)cc2)C1 (single isomer, unassigned) [Compound 41]

>  <Measurement type>
pIC50

>  <Measurement>
6.43

$$$$
>  <Molecule>
CN1CCC(c2ccc(C(=O)Nc3n[nH]c4cc(Nc5ccccc5F)ccc34)cc2OCC2COC2)CC1

>  <Measurement type>
pIC50

>  <Measurement>
6.69

$$$$
>  <Molecule>
CCc1cccc(F)c1Nc1ccc2c(NC(=O)c3ccc(C4CCN(C)CC4)cc3)n[nH]c2c1

>  <Measurement type>
pIC50

>  <Measurement>
6.50

$$$$
>  <Molecule>
CC(=O)N1CCN(c2ccc(C(=O)Nc3n[nH]c4nc(Nc5ccccc5F)ccc34)cc2)CC1

>  <Measurement type>
pIC50

>  <Measurement>
6.77

$$$$
>  <Molecule>
CN1CCCC(Oc2ccc(C(=O)Nc3n[nH]c4cc(Nc5ccccc5F)ccc34)cc2)C1 (centres unmarked) [Compound 38]

>  <Measurement type>
pIC50

>  <Measurement>
6.55

$$$$
